B1: library; a variant is named by its letters at N, in order (parent)
chain: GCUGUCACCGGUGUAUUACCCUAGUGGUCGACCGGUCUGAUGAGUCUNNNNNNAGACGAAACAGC

Variants of: B1
Test Details: normalized RNA/DNA level with ligand (relative to sTRSVctl = 100) (log10 (% of sTRSVctl)); ligand: hypoxanthine (xanthine aptamer); higher = less ribozyme self-cleavage, higher mRNA level
Particulars: ligand concentration (+) RNA-Seq: 5 mM, HEK293T, reporter: mCherry (pCS4076), ligand present: yes
# normalized RNA/DNA level with ligand (log10) per entry
// keep it numeric: no unit symbol after the value

Any idea what its normalized RNA/DNA level with ligand (log10) is? The variant is AUCUUC
2.02

Form field: reported normalized RNA/DNA level with ligand (log10) of GUCCUG
1.88

For UGGGUA , what is its reported normalized RNA/DNA level with ligand (log10)?
1.95

Request the reported normalized RNA/DNA level with ligand (log10) associated with CUACGA
1.97

Query (variant): UCAAAG ; field requested: normalized RNA/DNA level with ligand (log10)
1.92

Which normalized RNA/DNA level with ligand (log10) is reported for this variant? CAUGGG
1.86

Quick one: normalized RNA/DNA level with ligand (log10) for CCGGCA ?
1.97

I am curious: what normalized RNA/DNA level with ligand (log10) value has been reported for GACGCU ?
1.94
